Source: PubChem BioAssay (NCI)

Form field: TGI (one value per entry).
System: KM20L2 colon
Assay info: NCI tumour cell line growth inhibition, 48 h
Measurement name: TGI

>>> reported_result("O=C([CH-]C(=O)c1ccccc1)c1ccccc1.O=C([CH-]C(=O)c1ccccc1)c1ccccc1.O=C([CH-]C(=O)c1ccccc1)c1ccccc1.[Nd+3].[OH3+]")
"48 µM"
>>> reported_result("CCCCC1CC(c2cccc([N+](=O)[O-])c2)=NO1 (configuration not stated)")
"> 100 µM"
>>> reported_result("CC(C)=CCC/C(C)=C/CC/C(C)=C/Cc1c(O)c2ccccc2oc1=O")
"> 100 µM"
>>> reported_result("C=CC1[C@H]2COC(C)(C)O[C@@H]2CC(=O)C1(C)C (some centres not stated)")
"> 100 µM"
>>> reported_result("O=C(Nc1cccs1)c1c(O)[nH]c(=S)[nH]c1=O")
"> 100 µM"
>>> reported_result("CCO/C=C/C(C)C1(C(=O)OCC)CCCCC1=O (configuration not stated)")
"> 100 µM"
>>> reported_result("OC1c2ccccc2C2(O)C1C(c1ccccc1)C(c1ccccc1)C2(O)c1ccccc1 (configuration not stated)")
"22.5 µM"
>>> reported_result("O=C(c1ccccc1)C1CCCCN1C(=O)c1ccccc1 (configuration not stated)")
"> 100 µM"
>>> reported_result("CCOC(=O)/C(O)=C/c1cc(OC)cc(=O)o1")
"> 100 µM"
>>> reported_result("CC(=O)N[C@@H]1C(O)CN2C(=O)C(=O)O[C@H](C(O)CO)[C@@H]12 (some centres not stated)")
"> 100 µM"
>>> reported_result("CC(=O)Nc1ccc(C(=O)NN2C(=O)C(Cl)C2c2ccc([N+](=O)[O-])cc2)cc1 (configuration not stated)")
"> 100 µM"
>>> reported_result("OCCCOC(c1ccccc1)(c1ccccc1)c1ccccc1")
"> 100 µM"
>>> reported_result("O=c1[nH]c(=O)n([C@@H]2C[C@H](CO)[C@H](O)C2)cc1/C=C/Br")
"> 100 µM"
>>> reported_result("NCCCOCC(=O)O")
"> 100 µM"
>>> reported_result("COc1cc(/C=C\\c2ccccc2)cc(OC)c1OC")
"3.31 µM"
>>> reported_result("O=C(Nc1cccc([N+](=O)[O-])c1)C(=O)C(C(=O)c1ccccc1-c1ccccc1)C1OC(=O)c2ccccc21 (configuration not stated)")
"53.7 µM"
>>> reported_result("CS(=O)(=O)OCCN1CCN(C(=O)c2cccc3c(Nc4ccc(S(=O)(=O)N=C(N)N)cc4)c4ccccc4nc23)CC1")
"> 100 µM"
